Give BaF3/TEL-AXL proliferation Inhibitory rate (%) for every item shown.
- Test system: BaF3/TEL-AXL cells
- experimentalProtocol: Proliferation of BaF3/TEL-AXL cells
- Type: cell-based
- conditionDetails: 100 nM; two values per compound; 0.1 µM

What value of BaF3/TEL-AXL proliferation Inhibitory rate (%) has been recorded for this entry: COCCOc1cc2ncnc(Oc3ccc(NC(=O)c4c5n(n(-c6cc(F)ccc6F)c4=O)CCCC5)c(F)c3)c2cc1OCCOC 86.1%

What value of BaF3/TEL-AXL proliferation Inhibitory rate (%) has been recorded for this entry: COc1cc2ncnc(Oc3ccc(NC(=O)c4c5n(n(-c6cc(F)ccc6F)c4=O)CCCC5)cc3F)c2cc1OC 65.0%

What value of BaF3/TEL-AXL proliferation Inhibitory rate (%) has been recorded for this entry: COc1cc2ncnc(Oc3ccc(NC(=O)c4c5n(n(-c6ccccc6)c4=O)CCCC5)cc3F)c2cc1OC 83.9%

What value of BaF3/TEL-AXL proliferation Inhibitory rate (%) has been recorded for this entry: COCCOc1cc2ncnc(Oc3ccc(NC(=O)c4c5n(n(-c6ccc(F)cc6)c4=O)CCCC5)cc3F)c2cc1OCCOC 88.2%
